These entries and their values trace back to ChEMBL document CHEMBL5126555.

Target: Broad substrate specificity ATP-binding cassette transporter ABCG2 (Homo sapiens, UniProt Q9UNQ0)
Sequence (Q9UNQ0 whole entry): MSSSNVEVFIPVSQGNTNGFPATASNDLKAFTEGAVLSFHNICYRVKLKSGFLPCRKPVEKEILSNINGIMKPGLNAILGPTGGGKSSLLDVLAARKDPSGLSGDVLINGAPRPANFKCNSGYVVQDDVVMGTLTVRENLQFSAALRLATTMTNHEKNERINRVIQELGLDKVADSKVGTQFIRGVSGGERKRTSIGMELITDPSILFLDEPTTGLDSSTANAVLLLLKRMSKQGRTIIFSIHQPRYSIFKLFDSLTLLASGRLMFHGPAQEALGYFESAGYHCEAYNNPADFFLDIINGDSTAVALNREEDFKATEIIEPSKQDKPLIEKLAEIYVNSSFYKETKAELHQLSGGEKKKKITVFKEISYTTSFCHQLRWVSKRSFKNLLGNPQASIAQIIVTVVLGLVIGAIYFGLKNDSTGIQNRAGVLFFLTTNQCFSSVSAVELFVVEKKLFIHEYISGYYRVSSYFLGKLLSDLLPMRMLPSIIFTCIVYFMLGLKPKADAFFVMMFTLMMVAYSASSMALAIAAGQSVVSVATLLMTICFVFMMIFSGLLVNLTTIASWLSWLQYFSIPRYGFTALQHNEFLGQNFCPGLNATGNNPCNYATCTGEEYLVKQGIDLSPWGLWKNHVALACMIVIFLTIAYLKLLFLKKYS
Assay: Inhibition of ABCG2 (unknown origin) expressed in human K562 cells assessed as extrusion of Hoechst 33342 using Hoechst 33342 as substrate by flow cytometry
Assay type: cell-based
RECORDED_METRIC: IC50 (µM)
Supply the numeric figure in µM, leaving out any unit text.

q: Look up IC50 for this molecule: `COc1cc(Nc2c(C#N)cnc3cc(OCCCN4CCN(C)CC4)c(OC)cc23)c(Cl)cc1Cl`
a: 2
